Give pIC50 for every item shown.
# System: colorectal DLD1 cancer cells
# Assay name: In vitro cytotoxicity MTS assay, colorectal DLD1
# Format: cell-based, human
# Test settings: 72 hours
pIC50 (log units): -log10 of the concentration in mol/L.

Please report the recorded pIC50 for Cc1cc(Cn2cc(C(=O)C(=O)Nc3ccc4ncccc4c3)c3ccccc32)on1 [Compound 59] .
6.18

Entry to check: COc1ccc(NC(=O)C(=O)c2cn(Cc3ccccc3C#N)c3ccccc23)cc1 [Compound 32]
5.25

Entry to check: N#Cc1ccc(Cn2cc(C(=O)C(=O)Nc3cc(-c4ccc(Cl)cc4)no3)c3ccccc32)cc1 [Compound 30]
6.03

Entry to check: O=C(Nc1ccc2ncccc2c1)C(=O)c1cn(Cc2ccco2)c2ccccc12 [Compound 42]
6.10

Entry to check: N#Cc1ccc(Cn2cc(C(=O)C(=O)Nc3ccc(I)cc3)c3ccccc32)cc1 [Compound 13]
6.07

Entry to check: Cc1cc(Cn2cc(C(=O)C(=O)Nc3cc(C)ns3)c3ccccc32)on1 [Compound 56]
7.39

Entry to check: Cc1cc(NC(=O)C(=O)c2cn(Cc3cc(C(C)C)no3)c3ccccc23)sn1 [Compound 65]
6.22

Entry to check: Cc1cc(NC(=O)C(=O)c2cn(Cc3ccc(C#N)cc3)c3ccc(Br)cc23)sn1 [Compound 24]
5.24

Entry to check: N#Cc1ccc(Cn2cc(C(=O)C(=O)Nc3ccc4ncccc4c3)c3ccccc32)cc1 [Compound 3]
6.18

Entry to check: Cc1cc(NC(=O)C(=O)c2cn(Cc3ccco3)c3ccccc23)sn1 [Compound 40]
6.01

Entry to check: Cc1cc(NC(=O)C(=O)c2cn(Cc3ccc(C#N)cc3)c3ccccc23)sn1 [Compound 25]
6.27

Entry to check: O=C(Nc1ccc2ncccc2c1)C(=O)c1cn(Cc2cscn2)c2ccccc12 [Compound 77]
5.82

Entry to check: O=C(Nc1cc(-c2ccc(Cl)cc2)no1)C(=O)c1cn(Cc2ccc(Cl)cc2)c2ccccc12 [Compound 38]
5.43

Entry to check: O=C(Nc1ccc2ncccc2c1)C(=O)c1cn(Cc2ccsc2)c2ccccc12 [Compound 48]
5.84

Entry to check: COc1ccc(NC(=O)C(=O)c2cn(Cc3ccsc3)c3ccccc23)cc1 [Compound 50]
6.13

Entry to check: Cc1cc(NC(=O)C(=O)c2cn(Cc3ccno3)c3ccccc23)sn1 [Compound 54]
6.40

Entry to check: CCc1cc(Cn2cc(C(=O)C(=O)Nc3cc(C)ns3)c3ccccc32)on1 [Compound 63]
6.15
